# system tested: human p38 kinase alpha (Homo sapiens)
# Construct: GST (N, cleaved yes); made in house; host or cells: E. coli DH10B
# procedure summary: p38 kinase in vitro assay, phosphorylation of biotinylated PHAS-I with 32P-ATP
# Assay type: biochemical
# reported conditions: @ 1.0 uM
readout name: P38 alpha kinase % inhib @ conc. (uM) (% @)

- compound: "CC(=O)OC(C)C(=O)NCCc1[nH]nc(-c2ccc(F)cc2)c1-c1ccncc1 (stereo not shown) [Example B-0993]"
  result unit: "% @"
  P38 alpha kinase % inhib @ conc. (uM): 57.0

1. O=C(NCCc1[nH]nc(-c2ccc(F)cc2)c1-c1ccncc1)NC(=O)c1ccccc1 [Example B-0934]
2. O=S(=O)(Cc1ccccc1)NCCc1[nH]nc(-c2ccc(F)cc2)c1-c1ccncc1 [Example B-1017]
So which one has the bigger P38 alpha kinase % inhib @ conc. (uM) here, 1 or 2 ? Please reply using the label of the selected record.
2
(2: 96.0 % @, 1: 67.0 % @)

====

# system tested: human p38 kinase alpha (Homo sapiens, UniProt Q16539)
# Construct: GST (N, cleaved yes); made in house; host or cells: E. coli DH10B
# Sequence (Q16539 whole entry): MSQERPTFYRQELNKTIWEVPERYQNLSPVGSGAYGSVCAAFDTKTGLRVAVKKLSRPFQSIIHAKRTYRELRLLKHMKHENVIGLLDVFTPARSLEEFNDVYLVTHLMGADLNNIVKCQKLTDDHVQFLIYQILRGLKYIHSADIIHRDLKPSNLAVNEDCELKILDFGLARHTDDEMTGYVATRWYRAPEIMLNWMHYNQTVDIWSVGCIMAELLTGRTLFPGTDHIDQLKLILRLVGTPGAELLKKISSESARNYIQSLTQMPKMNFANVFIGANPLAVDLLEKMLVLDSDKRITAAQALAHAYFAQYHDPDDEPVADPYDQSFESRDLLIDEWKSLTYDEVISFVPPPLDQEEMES
# procedure summary: p38 kinase in vitro assay, phosphorylation of biotinylated PHAS-I with 32P-ATP
# Type: biochemical
# reported conditions: @ 1.0 uM
readout name: P38 alpha kinase % inhib @ conc. (uM) (% @)

- molecule: "CC(C)NC(=O)NCCc1[nH]nc(-c2ccc(F)cc2)c1-c1ccncc1 [Example B-1029]"
  P38 alpha kinase % inhib @ conc. (uM) / % @: 69.0
- molecule: "O=C(NCCCc1[nH]nc(-c2ccc(F)cc2)c1-c1ccncc1)c1ccc(F)c(F)c1F"
  P38 alpha kinase % inhib @ conc. (uM) / % @: 80.0
- molecule: "O=C(NCCCc1[nH]nc(-c2ccc(F)cc2)c1-c1ccncc1)C1CC1"
  P38 alpha kinase % inhib @ conc. (uM) / % @: 77.0
- molecule: "CC(=O)OCC(=O)NCCCc1[nH]nc(-c2ccc(F)cc2)c1-c1ccncc1"
  P38 alpha kinase % inhib @ conc. (uM) / % @: 74
- molecule: "CC(C)=CC(=O)NCCc1[nH]nc(-c2ccc(F)cc2)c1-c1ccncc1"
  P38 alpha kinase % inhib @ conc. (uM) / % @: 67.0
- molecule: "O=C(NCCc1[nH]nc(-c2ccc(F)cc2)c1-c1ccncc1)Nc1cccc(Cl)c1Cl"
  P38 alpha kinase % inhib @ conc. (uM) / % @: 68.0
- molecule: "CCOC(=O)C(NC(=O)NCCc1[nH]nc(-c2ccc(F)cc2)c1-c1ccncc1)C(C)C (centres unmarked)"
  P38 alpha kinase % inhib @ conc. (uM) / % @: 79.0
- molecule: "CC(=O)OCC(=O)NCCc1[nH]nc(-c2ccc(F)cc2)c1-c1ccncc1"
  P38 alpha kinase % inhib @ conc. (uM) / % @: 62.0

====

# System: TNF-α, U937 human histiocytic lymphoma cell line
# procedure summary: LPS stimulation of TNF production by U937 cells
# Format: cell-based
# reported conditions: Table 6; U937 cell assay; read-out: U937 IC50
readout name: IC50 (µM)

- compound: "Fc1ccc(CNc2cc(-c3cn(CCN4CCOCC4)nc3-c3ccc(F)cc3)ccn2)cc1 [Example A-285]"
  result unit: "µM"
  IC50: 0.179
- compound: "OCCn1cc(-c2ccnc(NCc3ccc(F)cc3)c2)c(-c2ccc(F)cc2)n1 [Example A-283]"
  result unit: "µM"
  IC50: 0.8

I. Fc1ccc(CNc2cc(-c3cn(CCN4CCOCC4)nc3-c3ccc(F)cc3)ccn2)cc1 [Example A-276]
II. OCCn1cc(-c2ccnc(NCc3ccc(F)cc3)c2)c(-c2ccc(F)cc2)n1 [Example A-289]
Select one. Lower IC50: I or II Please reply using the label of the selected record.
II
